Data credit: the supplement of paper PMC6555819

PBM binding z-score reference
Tested on: RARb homodimer (NR concentration 270 nM)
PROCEDURE_DETAILS: PBM binding z-score (relative to random genomic background probes); higher = stronger binding; sequences stand for … in GC…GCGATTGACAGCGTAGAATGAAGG
QUANTITY: PBM binding z-score

INSERT INTO measurements (biosequence, target_of_assay, recorded_value) VALUES
  ('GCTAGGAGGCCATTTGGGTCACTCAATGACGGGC', 'RARb homodimer (NR concentration 270 nM)', 2.18),
  ('CCTAGCAGGCCAATCTGGGTCACCCAAGGCTTGA', 'RARb homodimer (NR concentration 270 nM)', 2.55),
  ('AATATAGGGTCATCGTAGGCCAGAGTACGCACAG', 'RARb homodimer (NR concentration 270 nM)', 3.83),
  ('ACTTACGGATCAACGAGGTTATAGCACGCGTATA', 'RARb homodimer (NR concentration 270 nM)', 0.98),
  ('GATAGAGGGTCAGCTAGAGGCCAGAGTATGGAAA', 'RARb homodimer (NR concentration 270 nM)', 3.28),
  ('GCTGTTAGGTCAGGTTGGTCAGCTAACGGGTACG', 'RARb homodimer (NR concentration 270 nM)', 3.34),
  ('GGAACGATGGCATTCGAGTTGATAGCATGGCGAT', 'RARb homodimer (NR concentration 270 nM)', -1.05),
  ('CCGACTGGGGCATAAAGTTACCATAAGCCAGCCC', 'RARb homodimer (NR concentration 270 nM)', -0.229),
  ('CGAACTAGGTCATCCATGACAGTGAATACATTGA', 'RARb homodimer (NR concentration 270 nM)', 2.92),
  ('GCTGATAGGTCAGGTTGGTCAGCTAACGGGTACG', 'RARb homodimer (NR concentration 270 nM)', 3.37),
  ('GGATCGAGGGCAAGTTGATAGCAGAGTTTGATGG', 'RARb homodimer (NR concentration 270 nM)', 1.54),
  ('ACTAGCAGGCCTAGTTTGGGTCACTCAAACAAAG', 'RARb homodimer (NR concentration 270 nM)', 1.42);

###

PBM binding z-score reference
System: RARb:RXRa (NR concentration 270 nM, RXRa partner concentration 90 nM)
PROCEDURE_DETAILS: PBM binding z-score (relative to random genomic background probes); higher = stronger binding; sequences stand for … in GC…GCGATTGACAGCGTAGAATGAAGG
QUANTITY: PBM binding z-score

INSERT INTO assay_data (biosequence, quantity, recorded_value) VALUES
  ('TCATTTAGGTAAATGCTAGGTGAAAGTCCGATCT', 'PBM binding z-score', 0.562),
  ('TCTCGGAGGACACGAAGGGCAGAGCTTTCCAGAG', 'PBM binding z-score', 1.97),
  ('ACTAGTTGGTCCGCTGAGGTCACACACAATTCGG', 'PBM binding z-score', 2.97),
  ('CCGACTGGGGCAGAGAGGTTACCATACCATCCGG', 'PBM binding z-score', 1.24),
  ('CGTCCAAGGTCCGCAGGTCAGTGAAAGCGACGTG', 'PBM binding z-score', 1.89),
  ('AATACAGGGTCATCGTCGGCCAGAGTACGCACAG', 'PBM binding z-score', 4.46),
  ('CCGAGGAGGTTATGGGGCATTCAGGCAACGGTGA', 'PBM binding z-score', 1.73),
  ('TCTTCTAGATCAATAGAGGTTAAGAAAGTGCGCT', 'PBM binding z-score', 0.98),
  ('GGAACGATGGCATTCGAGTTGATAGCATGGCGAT', 'PBM binding z-score', -0.501),
  ('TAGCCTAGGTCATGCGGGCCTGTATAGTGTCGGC', 'PBM binding z-score', 3.55),
  ('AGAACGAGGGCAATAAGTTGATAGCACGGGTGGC', 'PBM binding z-score', 1.84),
  ('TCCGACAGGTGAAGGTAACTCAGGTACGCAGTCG', 'PBM binding z-score', 0.858);
